Each recorded value in this set is attributed to patent US10167284B2.

biological target: human muscarinic M4 receptor (Homo sapiens, UniProt P08173); construct: expressed in transfected cells; experiment: Alphascreen Surefire phospho-ERK1/2 functional assay, M4; assay type: cell-based; settings: CHO, read-out: M4 % Emax cf. ACh, CHO cells stably expressing human M4; Emax relative to ACh
Sequence (P08173 whole entry): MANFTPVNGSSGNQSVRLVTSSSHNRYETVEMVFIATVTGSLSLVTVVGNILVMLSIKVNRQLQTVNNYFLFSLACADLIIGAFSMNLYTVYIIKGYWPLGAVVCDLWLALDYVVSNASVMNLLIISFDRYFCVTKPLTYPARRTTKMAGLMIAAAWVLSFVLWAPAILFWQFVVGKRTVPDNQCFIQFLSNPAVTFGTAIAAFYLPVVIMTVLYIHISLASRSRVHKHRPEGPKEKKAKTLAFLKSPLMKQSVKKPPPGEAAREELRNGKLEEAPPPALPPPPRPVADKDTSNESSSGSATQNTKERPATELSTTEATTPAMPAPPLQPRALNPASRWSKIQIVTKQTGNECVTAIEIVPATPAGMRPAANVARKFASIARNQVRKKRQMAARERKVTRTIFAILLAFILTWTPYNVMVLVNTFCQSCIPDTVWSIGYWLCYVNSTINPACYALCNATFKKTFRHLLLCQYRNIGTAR
quantity.measured: Emax (%)

CCOC(=O)N1CCC2(CC(N3CCC4(CC3)OC(=O)N(C3CC3)C4CC)C2)C1 (mixture of isomers) [4-47 mixture of diastereomers] :: 106
CCCN1C(=O)CC2(CCN(C3CC4(CCN(C(=O)OCC)C4)C3)CC2)N1CC (single isomer, unassigned) [6-9 Isomer 2] :: 84
CCOC(=O)N1CCC2(CC(N3CCC4(CC3)OC(=O)N(CC3CC3)C4CC)C2)C1 (single isomer, unassigned) [4-25 Isomer 2 (racemic)] :: 69
CCOC(=O)N1CC2(CC(N3CCC4(CC3)OC(=O)NC4(C)C)C2)C1 :: 73
CCN1C(=O)OC2(CCN(C3CC4(CCN(C(=O)OC)C4)C3)CC2)C1(C)C (single isomer, unassigned) [4-34 Isomer 2] :: 83
CCOC(=O)N1CCC2(CC(N3CCC4(CC3)OC(=O)N(OC)C4CC)C2)C1 (mixture of isomers) [4-48 mixture of diastereomers] :: 77

====

target: human muscarinic M4 receptor (Homo sapiens, UniProt P08173); construct: expressed in transfected cells; assay: Alphascreen Surefire phospho-ERK1/2 functional assay, M4; format: cell-based; details: CHO, read-out: M4 % Emax cf. ACh, CHO cells stably expressing human M4; Emax relative to ACh
quantity.measured: Emax (%)

Examples with answers:
CCOC(=O)N1CCC2(CC(N3CCC4(CNC(=O)C4)C(F)C3)C2)C1 (single isomer, unassigned) [3-9 Isomer 2] :: 47
COC(=O)N1CCC2(CC(N3CCC4(CC3)CNC(=O)O4)C2)C1 (single isomer, unassigned) [4-1 Isomer 2] :: 86
CC(C)OC(=O)N1CCC2(CC(N3CCC4(CC3)CNC(=O)O4)C2)C1 (single isomer, unassigned) [4-4 Isomer 2] :: 24

[A] CCOC(=O)N1CC2(CCC(N3CCC4(CC3)OC(=O)NC4CC)C2)C1 (mixture of isomers) [8-1 mixture of diastereomers]
[B] CCCN1NC(=O)CC12CCN(C1CC3(CCN(C(=O)OCC)C3)C1)CC2 (single isomer, unassigned) [6-4 Isomer 2]
// compare measured Emax, left A , right B , return larger Respond using the label that marks the chosen record.
B
(B: 100%, A: 70%)

[P] CCOC(=O)N1CC2(CC(N3CCC4(CC3)OC(=O)N3CCCC34)C2)C1 (stereo not shown)
[Q] CCOC(=O)N1CCC2(CC(N3CCC4(CC3)CN(CC(C)C)C(=O)O4)C2)C1 (single isomer, unassigned) [4-9 Isomer 2]
In terms of reported Emax, does P or Q have the smaller number? Respond using the label that marks the chosen record.
P
(P: 34%, Q: 76%)

====

Molecular target: human muscarinic M1 receptor (Homo sapiens)
Construct: expressed in transfected cells
Sequence (P11229 1-460): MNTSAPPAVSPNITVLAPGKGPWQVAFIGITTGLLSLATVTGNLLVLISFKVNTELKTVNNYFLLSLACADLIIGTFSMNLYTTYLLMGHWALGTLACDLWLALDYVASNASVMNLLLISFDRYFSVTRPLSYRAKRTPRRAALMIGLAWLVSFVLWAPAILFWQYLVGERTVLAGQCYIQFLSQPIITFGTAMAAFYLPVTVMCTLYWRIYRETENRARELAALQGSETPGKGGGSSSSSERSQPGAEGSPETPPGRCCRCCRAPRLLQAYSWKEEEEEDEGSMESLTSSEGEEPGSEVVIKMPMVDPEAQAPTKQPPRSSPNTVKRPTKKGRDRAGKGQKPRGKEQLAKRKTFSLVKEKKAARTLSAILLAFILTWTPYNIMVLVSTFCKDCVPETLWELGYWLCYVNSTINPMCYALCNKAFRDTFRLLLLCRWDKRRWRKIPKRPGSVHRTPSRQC
Experiment: Alphascreen Surefire phospho-ERK1/2 functional assay, M1
Type: cell-based
Details: CHO, read-out: M1 % Emax cf. ACh, CHO cells stably expressing human M1; Emax relative to ACh
quantity.measured: Emax (%)

Examples with answers:
CCOC(=O)N1CCC2(CC(N3CCC4(CC3)OC(=O)N(CCOC)C4(C)C)C2)C1 (single isomer, unassigned) [4-41 Isomer 2] :: 8
CCCN1C(=O)CC2(CCN(C3CC4(CCN(C(=O)OCC)C4)C3)CC2)N1CC (single isomer, unassigned) [6-9 Isomer 2] :: 17
CCOC(=O)N1CC2(CCC(N3CCC4(CC3)OC(=O)NC4(C)C)C2)C1 (single isomer, unassigned) [8-3 Isomer 2] :: 12

[I] CCOC(=O)N1CC2(CCC(N3CCC4(CC3)OC(=O)N(CC)C4(C)C)C2)C1 (racemic) [8-4 racemic]
[II] CCOC(=O)N1CCC2(CC(N3CCC4(CC3)OC(=O)N(CC(F)(F)F)C4(C)C)C2)C1 (single isomer, unassigned) [4-43 Isomer 2]
In terms of reported Emax, does I or II have the smaller number? Respond using the label that marks the chosen record.
II
